Give measured logD for each item. Keep answers brief.
assay: Lipophilicity, log D of the compound in buffer and octanol at pH 7.4 by shake flask method; assay type: physicochemical
Give bare numbers.

Example cases with answers are listed next.
INSERT INTO results (molecule_smiles, measured_metric, reported_result) VALUES
  ('C[C@@H]1Cc2c(ccc3[nH]ncc23)[C@@H](c2ccc(N(C)[C@H]3CCN(CCCF)C3)cn2)N1CC(F)(F)F', 'logD', 3.5),
  ('C[C@@H]1Cc2c(ccc3[nH]ncc23)[C@@H](c2ccc(O[C@H]3CCN(CCCF)C3)cn2)N1CC(F)(F)F', 'logD', 3.2),
  ('COc1cc(OCCN2CC(CF)C2)ccc1[C@@H]1c2ccc3[nH]ncc3c2C[C@@H](C)N1CC1(F)COC1', 'logD', 2.7),
  ('COc1cc(OCCN2CC(CF)C2)ccc1[C@@H]1c2ccc3[nH]ncc3c2C[C@@H](C)N1CC(C)(C)F', 'logD', 3.6),
  ('C[C@@H]1Cc2c(ccc3[nH]ncc23)[C@@H](c2c(F)cc(OCCN3CC(CF)C3)cc2F)N1CC(C)(C)F', 'logD', 4.4),
  ('CC(C)CN1[C@H](c2c(F)cc(OCCN3CC(CF)C3)cc2F)c2ccc3[nH]ncc3c2C[C@H]1C', 'logD', 4.6);

Provide logD values for the following items, in order.
1. C[C@@H]1Cc2c(ccc3[nH]ncc23)[C@@H](c2ccc(NCCNCCCF)cn2)N1CC1(F)CC1
2. C[C@@H]1Cc2c(ccc3[nH]ncc23)[C@@H](c2ccc(NC3(C)CN(CCCF)C3)cn2)N1CC(F)(F)F
3. COc1cc(NC2CN(CCCF)C2)ccc1[C@@H]1c2ccc3[nH]ncc3c2C[C@@H](C)N1CC(F)F
4. C[C@@H]1Cc2c(ccc3[nH]ncc23)[C@@H](c2ccc(OCCN3CC(CF)C3)cn2)N1CC(F)(F)F
5. C[C@@H]1Cc2c(ccc3[nH]ncc23)[C@@H](c2ccc(NC3CN(CCCF)C3)cn2)N1CC(F)F
6. COc1cc(OCCNCCCF)ccc1[C@@H]1c2ccc3[nH]ncc3c2C[C@@H](C)N1CC1(F)CC1

Result block:
1: 2; 2: 3.2; 3: 3.2; 4: 3; 5: 2.4; 6: 2.4

Provide logD values for the following items, in order.
1. CC(C)CN1[C@H](c2ccc(OCCN3CC(CF)C3)cc2)c2ccc3[nH]ncc3c2C[C@H]1C
2. C[C@@H]1Cc2c(ccc3[nH]ccc23)[C@@H](c2ccc(NC3CN(CCCF)C3)cn2)N1CC(F)(F)F
3. CC(C)CN1[C@H](c2ccc(OCCN3CC(CF)C3)cn2)c2ccc3[nH]ncc3c2C[C@H]1C

Result block:
1: 3.4; 2: 3.2; 3: 3.2

Provide logD values for the following items, in order.
1. C[C@@H]1Cc2c(ccc3[nH]ncc23)[C@@H](c2ccc(NCCNCCCF)cn2)N1CC(F)(F)F
2. C[C@@H]1Cc2c(ccc3[nH]ncc23)[C@@H](c2ccc(N[C@H]3CCN(CCCF)C3)cn2)N1CC(F)(F)F

Result block:
1. 2.7
2. 3

* * *

molecular target: Estrogen receptor (Homo sapiens); experiment: Displacement of fluormone ES2 green reagent from human GST-tagged ERalpha LBD (282 to 595 residues) expressed in baculovirus infected insect cells incubated for 1 hrs by TR-FRET Lanthascreen assay
Sequence (P03372 whole entry, the tested form may be a part): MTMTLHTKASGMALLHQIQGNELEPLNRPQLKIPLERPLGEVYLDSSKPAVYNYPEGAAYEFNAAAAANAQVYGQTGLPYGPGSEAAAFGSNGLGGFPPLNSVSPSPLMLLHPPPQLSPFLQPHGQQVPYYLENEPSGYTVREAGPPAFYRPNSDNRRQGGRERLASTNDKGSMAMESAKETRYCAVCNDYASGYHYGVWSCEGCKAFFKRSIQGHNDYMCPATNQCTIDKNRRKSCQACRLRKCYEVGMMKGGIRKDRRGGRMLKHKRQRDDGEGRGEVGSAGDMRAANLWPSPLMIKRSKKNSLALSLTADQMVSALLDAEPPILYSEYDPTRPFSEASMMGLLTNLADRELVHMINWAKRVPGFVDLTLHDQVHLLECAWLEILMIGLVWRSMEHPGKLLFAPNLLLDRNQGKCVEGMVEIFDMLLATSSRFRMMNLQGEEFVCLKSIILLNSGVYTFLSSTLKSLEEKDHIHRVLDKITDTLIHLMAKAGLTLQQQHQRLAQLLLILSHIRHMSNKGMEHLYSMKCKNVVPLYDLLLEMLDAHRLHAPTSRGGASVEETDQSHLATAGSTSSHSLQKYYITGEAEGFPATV
measured_metric: pIC50
One number for each entry, as −log10 of the molar value.

INSERT INTO assay_data (molecule_smiles, measured_metric, reported_result) VALUES
  ('C[C@@H]1Cc2c(ccc3[nH]ncc23)[C@@H](c2ccc(NC3(C)CN(CCCF)C3)cn2)N1CC(F)(F)F', 'pIC50', 8.10),
  ('C[C@@H]1Cc2c(ccc3[nH]ncc23)[C@@H](c2ccc(O[C@H]3CCN(CCCF)C3)cn2)N1CC(F)(F)F', 'pIC50', 8.70),
  ('C[C@@H]1Cc2c(ccc3[nH]ncc23)[C@@H](c2ccc(NC3CN(CCCF)C3)cn2)N1CC(F)F', 'pIC50', 8.40),
  ('C[C@@H]1Cc2c(ccc3[nH]ncc23)[C@@H](c2ccc(N(C)C3CN(CCCF)C3)cn2)N1CC(F)(F)F', 'pIC50', 8.70),
  ('C[C@@H]1Cc2c(ccc3[nH]ncc23)[C@@H](c2ccc(NCCNCCCF)cn2)N1CC1(F)CC1', 'pIC50', 8.00);

Provide pIC50 values for the following items, in order.
1. CC1(C)Cc2c(ccc3[nH]ncc23)[C@@H](c2ccc(NC3CN(CCCF)C3)cn2)N1CC(F)F
2. C[C@@H]1Cc2c(ccc3[nH]ncc23)[C@@H](c2ccc(OCCN3CC(CF)C3)cn2)N1CC(F)F
3. COc1cc(OC2CN(CCCF)C2)ccc1[C@@H]1c2ccc3[nH]ncc3c2C[C@@H](C)N1CC1(F)CC1

Result block:
1. 8.50
2. 8.60
3. 8.10
